Provide the recorded IC50 for the entries that follow.
study-system: human TLR7 (Homo sapiens)
Sequence (Q9NYK1 27-1049): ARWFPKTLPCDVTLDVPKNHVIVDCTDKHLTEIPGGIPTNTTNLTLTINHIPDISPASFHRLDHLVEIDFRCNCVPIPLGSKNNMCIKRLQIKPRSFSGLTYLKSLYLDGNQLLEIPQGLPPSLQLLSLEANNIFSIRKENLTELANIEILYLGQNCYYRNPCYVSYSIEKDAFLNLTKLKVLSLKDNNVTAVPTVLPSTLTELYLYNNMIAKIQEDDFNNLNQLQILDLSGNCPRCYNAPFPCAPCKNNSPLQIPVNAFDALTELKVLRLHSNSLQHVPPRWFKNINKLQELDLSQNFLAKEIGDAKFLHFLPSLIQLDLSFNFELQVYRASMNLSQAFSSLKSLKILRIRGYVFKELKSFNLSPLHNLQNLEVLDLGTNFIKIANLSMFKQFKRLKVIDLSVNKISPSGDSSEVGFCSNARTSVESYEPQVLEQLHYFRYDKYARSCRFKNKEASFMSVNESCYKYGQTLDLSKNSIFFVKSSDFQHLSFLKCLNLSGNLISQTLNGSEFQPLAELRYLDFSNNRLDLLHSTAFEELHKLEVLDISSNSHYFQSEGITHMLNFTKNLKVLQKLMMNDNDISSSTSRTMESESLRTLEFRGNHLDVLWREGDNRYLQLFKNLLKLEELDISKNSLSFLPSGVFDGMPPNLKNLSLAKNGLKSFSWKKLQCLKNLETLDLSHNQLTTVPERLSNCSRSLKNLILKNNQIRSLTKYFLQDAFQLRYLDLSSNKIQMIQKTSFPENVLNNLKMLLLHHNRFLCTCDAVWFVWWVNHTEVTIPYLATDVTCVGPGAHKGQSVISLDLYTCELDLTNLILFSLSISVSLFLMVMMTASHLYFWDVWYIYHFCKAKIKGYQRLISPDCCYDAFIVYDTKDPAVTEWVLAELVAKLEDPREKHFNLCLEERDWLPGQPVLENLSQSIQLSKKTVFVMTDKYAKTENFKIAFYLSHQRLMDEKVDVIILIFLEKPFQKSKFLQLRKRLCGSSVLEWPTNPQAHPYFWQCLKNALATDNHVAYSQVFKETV
assay-protocol: TLR7 inhibition reporter assay (HEK-Blue cells, SEAP reporter, gardiquimod stimulation)
cond: HEK-Blue cells overexpressing human TLR7, gardiquimod 7.5 μM
Counter-ions that a name gives are not always drawn.
Report the value in nM with no unit label.

IC50 for COc1ccc(-c2[nH]c3ccc(C4CCN(Cc5cccc6ncccc56)CC4)cc3c2C)cc1OC ?
8300

IC50 for CCN(CC)C(=O)C1CCCN(CC(=O)N2CCC(c3ccc4[nH]c(-c5ccc(OC)c(OC)c5)c(C)c4c3)CC2)C1 (centres unmarked) ?
3150

IC50 for COc1ccc(-c2[nH]c3ccc(C4CCN(C5CCN(Cc6cncn6C)CC5)CC4)cc3c2C)cc1OC ?
477

IC50 for COc1ccc(-c2[nH]c3ccc(C4CCN(CC(=O)N5CCN(c6ncccn6)CC5)CC4)cc3c2CC(F)(F)F)cc1OC ?
159

IC50 for COc1ccc(-c2[nH]c3ccc(C4CCN(C(=O)CNC[C@@H](F)C(C)(C)O)CC4)cc3c2C(C)C)cc1OC ?
372

IC50 for COc1ccc(-c2[nH]c3ccc(C4CCN(CC(=O)N5CC[C@H](O)C5)CC4)cc3c2C(C)C)cc1OC ?
8

IC50 for COc1ccc(-c2[nH]c3ccc(C4CCN(C(=O)CNC56CC7CC(CC(O)(C7)C5)C6)CC4)cc3c2C(C)C)cc1OC ?
44

IC50 for COc1ccc(-c2[nH]c3ccc(C4CCN(C(=O)CN5CCC[C@H](C(=O)N6CCN(CCN7CCCC7)CC6)C5)CC4)cc3c2C(C)C)cc1OC ?
28

IC50 for COc1ccc(-c2[nH]c3ccc(C4CCN(C5CCNCC5)CC4)cc3c2C(C)C)cc1OC [Example 197, dihydrochloride] ?
113

IC50 for CCc1c(-c2ccc(OC)c(OC)c2)[nH]c2ccc(C3CCN(C4CCN(CC(C)C)CC4)CC3)cc12 ?
398

IC50 for COc1ccc(-c2[nH]c3ccc(C4CCN(C[C@H]5CCCN5)CC4)cc3c2C)cc1OC ?
3540

IC50 for COc1ccc(-c2[nH]c3ccc(C4CCNCC4)cc3c2C2CCOCC2)cc1OC ?
300

IC50 for CNC(=O)CN1CCC(c2ccc3[nH]c(-c4ccc(OC)c(OC)c4)c(CC(F)F)c3c2)CC1 ?
132

IC50 for CCc1c(-c2ccc(OC)c(OC)c2)[nH]c2ccc(C3CCN(C4CCN(Cc5cc(C)n(C)n5)CC4)CC3)cc12 ?
473

----------
study-system: human TLR8 (Homo sapiens, UniProt Q9NR97)
Sequence (Q9NR97 27-1041): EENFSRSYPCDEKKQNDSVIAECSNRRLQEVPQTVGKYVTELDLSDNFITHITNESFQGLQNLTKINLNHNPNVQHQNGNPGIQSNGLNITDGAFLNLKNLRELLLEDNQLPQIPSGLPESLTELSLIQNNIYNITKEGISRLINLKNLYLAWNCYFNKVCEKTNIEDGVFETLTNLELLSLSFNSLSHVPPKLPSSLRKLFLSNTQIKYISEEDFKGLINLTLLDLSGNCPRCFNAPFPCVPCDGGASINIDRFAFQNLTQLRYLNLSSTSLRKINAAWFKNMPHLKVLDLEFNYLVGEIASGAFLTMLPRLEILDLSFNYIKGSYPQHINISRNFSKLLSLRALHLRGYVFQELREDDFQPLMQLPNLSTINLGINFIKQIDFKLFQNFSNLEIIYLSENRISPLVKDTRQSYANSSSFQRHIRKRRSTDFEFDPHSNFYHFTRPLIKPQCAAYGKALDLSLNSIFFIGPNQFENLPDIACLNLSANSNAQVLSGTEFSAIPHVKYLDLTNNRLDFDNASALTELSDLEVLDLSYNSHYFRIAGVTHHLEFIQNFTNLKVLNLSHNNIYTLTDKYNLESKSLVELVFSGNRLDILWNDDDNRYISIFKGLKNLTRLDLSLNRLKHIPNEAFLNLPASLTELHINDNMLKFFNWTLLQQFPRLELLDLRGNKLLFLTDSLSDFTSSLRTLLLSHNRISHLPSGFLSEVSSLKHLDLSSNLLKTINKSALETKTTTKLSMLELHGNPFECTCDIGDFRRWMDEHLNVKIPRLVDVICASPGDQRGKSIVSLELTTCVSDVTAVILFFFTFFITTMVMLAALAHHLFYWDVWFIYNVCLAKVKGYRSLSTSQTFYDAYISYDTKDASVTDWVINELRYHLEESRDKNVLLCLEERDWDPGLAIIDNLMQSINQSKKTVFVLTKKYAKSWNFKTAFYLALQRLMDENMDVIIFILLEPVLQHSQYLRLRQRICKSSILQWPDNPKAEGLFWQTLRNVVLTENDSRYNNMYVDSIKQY
assay-protocol: TLR8 inhibition reporter assay (HEK-Blue cells, SEAP reporter, R848 stimulation)
cond: HEK-Blue cells overexpressing human TLR8, R848 15.9 μM
measure-name: IC50
Record the result as a number with its unit.

IC50 for CCC(C)NC(=O)CN1CCC(c2ccc3[nH]c(-c4ccc(OC)c(OC)c4)c(CC(F)(F)F)c3c2)CC1 (stereo not shown) [Example 377] ?
204 nM

IC50 for COc1ccc(-c2[nH]c3ccc(C4CCN(C5CCCN(CC(C)C)CC5)CC4)cc3c2C)cc1OC (stereo not shown) [Example 95] ?
195 nM

IC50 for CCN(CC)C(=O)CCN(C)CC(=O)N1CCC(c2ccc3[nH]c(-c4ccc(OC)c(OC)c4)c(C(C)C)c3c2)CC1 [Example 204] ?
112 nM

IC50 for COc1ccc(-c2[nH]c3ccc(C4CCN(C(=O)CN5CCCN(C(C)=O)CC5)CC4)cc3c2C(C)C)cc1OC [Example 222] ?
67 nM
